Attribution: PubChem BioAssay AID1768

Molecular target: Menin (Homo sapiens)
Experiment: qHTS Assay for Inhibitors Targeting the Menin-MLL Interaction in MLL Related Leukemias: Competition With Texas Red Labeled MLL-derived Mutant Peptide
Settings: fluorescence polarization; series mostly up to 61.6 µM
Among all 270,000 compounds or so, about 620 (0.23%) were called active. Not shown: some 12% with an inconclusive outcome. Calls come from the whole dose curve; as a rule, active = well fitted inhibition curve with a large enough effect in the polarisation, with a control signal flat (not every such curve was filed as active); inconclusive = small, poorly fitted or top-dose-only effect, or effect the other way, or a change in a side signal; inactive = no such curve, though single readings can be large or run the other way; the % refers to the polarisation. For the sample, actives were picked, then their nearest neighbours and some compounds at random.
Possible outcomes: active, inactive

>>> class_label("Cc1nc(-c2ccc(NC(=O)c3cccs3)cc2)cs1")
"active"
>>> class_label("COCCNc1ncnc2ccc(-c3ccccc3CN(C)C)cc12")
"inactive"
>>> class_label("CC(=O)N(Cc1cc(=O)[nH]c2ccccc12)c1ccc(C)cc1C")
"inactive"
>>> class_label("C=CCn1c(SCC(=O)NC)nnc1C12CC3CC(CC(C3)C1)C2")
"inactive"
